# Assay System: Ribonucleoside-diphosphate reductase large subunit (Homo sapiens, UniProt P23921)
# Sequence (P23921 whole entry): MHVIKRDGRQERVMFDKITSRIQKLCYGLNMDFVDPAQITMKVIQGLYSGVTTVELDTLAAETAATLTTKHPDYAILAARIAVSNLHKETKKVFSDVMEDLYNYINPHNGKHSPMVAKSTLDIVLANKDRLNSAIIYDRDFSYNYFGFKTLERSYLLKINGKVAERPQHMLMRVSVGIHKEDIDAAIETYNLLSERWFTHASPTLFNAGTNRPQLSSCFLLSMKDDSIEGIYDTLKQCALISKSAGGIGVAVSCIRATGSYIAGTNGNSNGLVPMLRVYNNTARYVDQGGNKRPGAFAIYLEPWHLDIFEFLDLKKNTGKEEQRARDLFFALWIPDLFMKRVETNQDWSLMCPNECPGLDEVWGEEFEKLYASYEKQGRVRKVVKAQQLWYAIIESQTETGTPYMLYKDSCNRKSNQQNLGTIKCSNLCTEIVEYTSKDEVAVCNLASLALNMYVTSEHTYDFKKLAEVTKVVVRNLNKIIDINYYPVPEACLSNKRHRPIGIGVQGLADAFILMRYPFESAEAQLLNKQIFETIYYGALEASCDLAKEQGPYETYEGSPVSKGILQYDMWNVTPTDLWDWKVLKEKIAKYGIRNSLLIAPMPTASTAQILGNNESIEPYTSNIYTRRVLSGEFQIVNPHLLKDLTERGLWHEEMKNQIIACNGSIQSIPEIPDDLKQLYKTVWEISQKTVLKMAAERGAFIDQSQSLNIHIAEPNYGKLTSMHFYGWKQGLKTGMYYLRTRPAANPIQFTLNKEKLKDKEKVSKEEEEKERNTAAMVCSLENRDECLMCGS
# Experiment Notes: Inhibition of human ribonucleotide reductase M1 subunit expressed in Escherichia coli BL21 (DE3) using 14C-ADP as substrate by liquid scintillation counting analysis
Observable: IC50
In your response, the unit should come after the numeric value.

Exercise: Write down IC50 measured for item NC(=O)NO [HYDROXYUREA]
Key: 997 µM

----------
Activity listing for selected compounds.
# Experiment Notes: Growth inhibition of human HCT116 cells assessed as 1-relative growth at 10 uM after 3 days by DNA dye binding assay
# Format: functional, HCT-116
Non-standard residues stand in square brackets, D forms with d. Residues, ends and D or L forms follow the SMILES beside them. Sar = CNCC(=O)O

compound="CC(NCCCCCO)c1cc(OCc2ccccc2)cc(OCc2ccccc2)c1 (configuration not stated)" obs_value=0.036
compound=CCOC(=O)C[C@@H](CC(=O)NCCN[C@H](C)c1ccc(O)c(C(=O)OC)c1)OC(C)=O obs_value=0.096
compound=CCCCCCCCCCCCCCNC(=O)[C@@H](N)CCN obs_value=0.69
compound="OC(COc1ccc(OCC(O)CN2CCN(C3c4ccccc4-c4ccccc43)CC2)cc1)CN1CCN(C2c3ccccc3-c3ccccc32)CC1 (configuration not stated)" obs_value=0.88
compound=CCCOc1ccc(C(=O)OCCN(CC)CC)cc1NS(=O)(=O)/C=C/c1ccccc1 obs_value=0.043

Exercise: Write down Activity measured for item `CCCCCCCCCCCCCCCC(=O)N[C@@H](CCCCN)C(=O)N[C@@H](CCCCN)C(=O)OC`
Key: -0.089

Exercise: Write down Activity measured for item CNCC(=O)N[C@@H](CCCNC(=N)N)C(=O)N[C@H](C(=O)N[C@@H](Cc1ccc(O)cc1)C(=O)N[C@H](C(=O)N[C@@H](Cc1cnc[nH]1)C(=O)O)C(C)C)C(C)C (H-[Sar]RVYVH-OH)
Key: 0.158
